Origin of the recorded values: patent US8211929B2

- Tgt: IGF 3P (Homo sapiens, UniProt P08069)
- Construct: human IGF1R kinase domain residues M954-C1367; made in house; host or cells: baculovirus expression (insect cells)
- Sequence (P08069 954-1367): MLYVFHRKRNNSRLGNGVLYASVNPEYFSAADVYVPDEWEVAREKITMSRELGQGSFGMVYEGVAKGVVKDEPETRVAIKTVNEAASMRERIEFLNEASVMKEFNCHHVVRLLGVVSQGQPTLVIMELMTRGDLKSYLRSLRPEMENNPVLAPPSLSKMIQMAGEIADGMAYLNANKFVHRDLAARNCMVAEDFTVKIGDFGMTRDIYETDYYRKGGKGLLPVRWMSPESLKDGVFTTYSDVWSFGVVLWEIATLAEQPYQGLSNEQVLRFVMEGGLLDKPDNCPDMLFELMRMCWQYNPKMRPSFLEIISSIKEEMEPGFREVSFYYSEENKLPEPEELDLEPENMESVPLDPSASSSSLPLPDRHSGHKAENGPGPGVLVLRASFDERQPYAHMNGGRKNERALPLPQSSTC
- Method Notes: IGF1R kinase assay (LCCA), IGF 3P
- Assay type: biochemical
- Setup Conditions: IGF1R kinase LCCA assay
Measure: IC50

These recorded examples may help you get a feel for the data.
| Chemical String | IC50 |
| --- | --- |
| Fc1c(Cl)cccc1Nc1ncc(Br)c(Nc2cc(C3CC3)n[nH]2)n1 | 0.5 to 5 µM |
| CCN(CC)CCNC(=O)c1cc(Nc2cc(C3CC3)[nH]n2)nc(NCc2cc(-c3ccccc3)no2)n1 | < 0.05 µM |
| Cc1cc(Nc2cc(C3CC3)[nH]n2)nc(NCc2cc(-c3cccc(Cl)c3)no2)n1 | 0.05 to 0.5 µM |

Q: Entry Nc1ncnc2c1c(-c1cccc(Oc3ccccc3)c1)cn2C1CCCC1 has what IC50?
A: > 5 µM

Q: Would you kindly repeat that for Brc1cc(CNc2ncc(Br)c(Nc3cc(C4CC4)[nH]n3)n2)on1 ?
A: 0.05 to 0.5 µM

Q: Would you kindly repeat that for Nc1ncnc2c1c(-c1cccc(OCc3ccccc3)c1)cn2C1CNC1 ?
A: 0.5 to 5 µM

Q: Would you kindly repeat that for Cc1cc(Nc2cc(C3CC3)n[nH]2)nc(Nc2ccc(CCN)cc2)n1 ?
A: 0.05 to 0.5 µM

* * *

- Tgt: IGF 3P (Homo sapiens)
- Construct: human IGF1R kinase domain residues M954-C1367; made in house; host or cells: baculovirus expression (insect cells)
- Method Notes: IGF1R kinase assay (LCCA), IGF 3P
- Type: biochemical
- Setup Conditions: IGF1R kinase LCCA assay
Measure: IC50

These recorded examples may help you get a feel for the data.
| Chemical String | Tgt | IC50 |
| --- | --- | --- |
| O=C(Nc1ccc(Cl)c(Nc2ncc(Br)c(Nc3cc(C4CC4)[nH]n3)n2)c1)c1ccccc1 | IGF 3P (Homo sapiens) | 500 to 5000 nM |
| Cc1cc(Nc2cc(C3CC3)n[nH]2)nc(Nc2cc(Cl)cc(Cl)c2)n1 | IGF 3P (Homo sapiens) | > 5000 nM |
| c1ccc(-c2cc(CNc3nc(Nc4cc(C5CC5)[nH]n4)cc(OCCN4CCOCC4)n3)on2)cc1 | IGF 3P (Homo sapiens) | < 50 nM |
| Cc1cc(Nc2cc(C3CC3)n[nH]2)nc(Nc2ccc(CCN3CCOCC3)cc2)n1 | IGF 3P (Homo sapiens) | 500 to 5000 nM |
| O=C(c1cc(Nc2cc(C3CC3)[nH]n2)nc(NCc2cc(-c3ccccc3)no2)n1)N1CCOCC1 | IGF 3P (Homo sapiens) | 50 to 500 nM |

Q: Which IC50 is reported with IGF 3P (Homo sapiens) for this entry: FC(F)(F)Oc1cccc(Nc2ncc(Br)c(Nc3cc(C4CC4)n[nH]3)n2)c1 ?
A: > 5000 nM

Q: Would you kindly repeat that for Cc1cc(Nc2cc(C3CC3)n[nH]2)nc(Nc2ccc3cc(C(=O)NCCN4CCCC4)sc3c2)n1 ?
A: 500 to 5000 nM

Q: Would you kindly repeat that for FC(F)(F)Oc1ccccc1Nc1ncc(Br)c(Nc2cc(C3CC3)n[nH]2)n1 ?
A: 50 to 500 nM
